Target: C-Met-Rluc (R. reniformis, UniProt P08581 25-1390)
Sequence (P08581 25-1390): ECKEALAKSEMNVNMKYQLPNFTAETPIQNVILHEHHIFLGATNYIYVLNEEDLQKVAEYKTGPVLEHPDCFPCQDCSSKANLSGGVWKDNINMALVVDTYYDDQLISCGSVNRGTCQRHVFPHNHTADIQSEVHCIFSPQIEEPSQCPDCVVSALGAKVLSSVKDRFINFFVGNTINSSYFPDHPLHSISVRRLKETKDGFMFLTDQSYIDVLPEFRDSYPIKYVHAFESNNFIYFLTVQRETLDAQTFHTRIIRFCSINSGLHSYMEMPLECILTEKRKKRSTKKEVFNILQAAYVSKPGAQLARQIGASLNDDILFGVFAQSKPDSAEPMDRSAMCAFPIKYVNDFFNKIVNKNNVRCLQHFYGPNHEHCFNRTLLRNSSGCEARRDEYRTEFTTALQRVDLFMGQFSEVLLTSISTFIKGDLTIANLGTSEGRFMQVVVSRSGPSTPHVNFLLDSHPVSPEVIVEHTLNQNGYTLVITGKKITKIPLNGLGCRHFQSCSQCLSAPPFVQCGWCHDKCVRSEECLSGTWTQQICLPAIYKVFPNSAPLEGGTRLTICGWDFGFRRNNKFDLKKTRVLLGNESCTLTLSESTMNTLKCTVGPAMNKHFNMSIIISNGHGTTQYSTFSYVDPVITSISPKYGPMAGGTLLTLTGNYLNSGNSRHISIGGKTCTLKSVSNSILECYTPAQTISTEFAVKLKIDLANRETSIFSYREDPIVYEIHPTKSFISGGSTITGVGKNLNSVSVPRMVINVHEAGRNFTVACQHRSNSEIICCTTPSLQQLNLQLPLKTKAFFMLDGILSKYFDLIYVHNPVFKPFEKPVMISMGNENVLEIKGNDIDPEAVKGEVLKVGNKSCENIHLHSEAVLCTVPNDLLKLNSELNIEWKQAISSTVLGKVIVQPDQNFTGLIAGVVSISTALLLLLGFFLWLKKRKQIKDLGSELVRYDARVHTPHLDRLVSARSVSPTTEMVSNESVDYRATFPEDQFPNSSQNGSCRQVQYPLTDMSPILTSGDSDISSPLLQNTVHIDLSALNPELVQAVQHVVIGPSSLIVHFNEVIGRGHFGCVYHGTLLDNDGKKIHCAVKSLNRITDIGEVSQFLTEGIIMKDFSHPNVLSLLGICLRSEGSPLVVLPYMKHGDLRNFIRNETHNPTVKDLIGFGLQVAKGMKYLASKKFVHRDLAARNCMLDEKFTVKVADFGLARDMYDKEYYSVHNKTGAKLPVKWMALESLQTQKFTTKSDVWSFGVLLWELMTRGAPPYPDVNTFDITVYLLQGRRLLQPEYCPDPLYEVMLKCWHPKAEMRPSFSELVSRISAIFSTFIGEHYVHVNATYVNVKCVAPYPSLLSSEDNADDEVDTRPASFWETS
Assay: cell-based or functional assay
property: inhibition of HGF induced BRET signal, c-Met activation model
Value and unit, in that order.

Task: Would you mind telling me what inhibition of HGF induced BRET signal, c-Met activation model value was observed for [224G11]chim (antibody, human IgG1, V domains shown) VH: EVQLQQSGPELVKPGASVKISCKTSGYIFTAYTMHWVRQSLGESLDWIGGIKPNNGLANYNQKFKGKATLTVDKSSSTAYMDLRSLTSEDSAVYYCARSEITTEFDYWGQGTALTVSS VL: DIVLTQSPASLAVSLGQRATISCRASESVDSYANSFMHWYQQKPGQPPKLLIYRASNLESGIPARFSGSGSRTDFTLTINPVEADDVATYYCQQSKEDPLTFGSGTKLEMKR ?
Result: 34.5%

Task: Which inhibition of HGF induced BRET signal, c-Met activation model value belongs to murine 224G11 Mab (antibody, V domains shown) VH: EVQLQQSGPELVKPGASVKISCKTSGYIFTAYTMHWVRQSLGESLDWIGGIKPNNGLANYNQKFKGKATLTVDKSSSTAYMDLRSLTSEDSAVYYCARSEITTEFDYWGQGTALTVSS VL: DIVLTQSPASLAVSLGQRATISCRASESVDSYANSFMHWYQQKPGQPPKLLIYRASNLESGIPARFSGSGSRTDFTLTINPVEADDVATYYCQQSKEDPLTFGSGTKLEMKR ?
Result: 56.4%
